Where do the numbers come from? From patent US20190241669A1.

# assayed_target: T1, cynomolgus monkey BCMA (cynomolgus monkey, UniProt A0A2K5UD97 1-53)
# T1 construct: Soluble analyte in SPR; construct not described; also called cyBCMA; Cyno BCMA
# T1 sequence (A0A2K5UD97 entry or part of it): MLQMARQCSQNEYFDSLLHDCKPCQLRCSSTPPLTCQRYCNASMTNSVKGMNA
# assay_explanation: SPR, IgG on chip, cyBCMA analyte, 37C
Listing of recorded kon by entry.
Please state the figure in M⁻¹ s⁻¹; there is no need to write the unit.

Examples from the recorded data:
{"binder": "L3.PY/L1.PH/H3.TAQ (antibody, V domains shown, IgG) VH: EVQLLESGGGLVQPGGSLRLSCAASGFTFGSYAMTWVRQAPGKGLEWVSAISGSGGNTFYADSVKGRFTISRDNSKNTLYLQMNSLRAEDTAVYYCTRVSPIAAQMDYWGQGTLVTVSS VL: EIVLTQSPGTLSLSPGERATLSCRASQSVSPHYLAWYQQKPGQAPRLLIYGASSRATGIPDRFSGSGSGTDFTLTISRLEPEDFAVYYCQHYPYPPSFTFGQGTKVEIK", "recorded_endpoint": "kon", "assay_result": "2.51e+06"}
{"binder": "L3.PY/L3.KF/H2.YQ (antibody, V domains shown, IgG) VH: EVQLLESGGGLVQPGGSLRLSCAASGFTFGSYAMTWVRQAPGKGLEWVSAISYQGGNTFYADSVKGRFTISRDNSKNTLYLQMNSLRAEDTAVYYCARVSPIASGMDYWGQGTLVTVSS VL: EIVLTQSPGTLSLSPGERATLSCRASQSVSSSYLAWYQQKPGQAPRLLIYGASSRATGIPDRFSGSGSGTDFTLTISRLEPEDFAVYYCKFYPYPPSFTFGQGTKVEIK", "recorded_endpoint": "kon", "assay_result": "1.41e+06"}
{"binder": "L3.PY/L1.FF/H3.AE (antibody, V domains shown, IgG) VH: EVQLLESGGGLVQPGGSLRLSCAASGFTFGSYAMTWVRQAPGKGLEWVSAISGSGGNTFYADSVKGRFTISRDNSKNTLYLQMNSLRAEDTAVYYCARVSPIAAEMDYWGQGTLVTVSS VL: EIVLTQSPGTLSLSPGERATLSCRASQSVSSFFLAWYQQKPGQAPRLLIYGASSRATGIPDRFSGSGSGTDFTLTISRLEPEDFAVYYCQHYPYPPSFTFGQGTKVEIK", "recorded_endpoint": "kon", "assay_result": "2.85e+06"}
{"binder": "L3.PY/L1.FF/H2.QR (antibody, V domains shown, IgG) VH: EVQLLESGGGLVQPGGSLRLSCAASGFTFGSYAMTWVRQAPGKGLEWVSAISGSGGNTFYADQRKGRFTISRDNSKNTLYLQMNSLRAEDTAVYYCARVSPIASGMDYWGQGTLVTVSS VL: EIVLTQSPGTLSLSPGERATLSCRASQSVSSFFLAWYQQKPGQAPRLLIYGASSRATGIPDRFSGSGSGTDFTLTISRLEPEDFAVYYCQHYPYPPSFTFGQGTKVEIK", "recorded_endpoint": "kon", "assay_result": "2.55e+06"}

Now for the binder whose kon we want.
Looking up L3.PY/L3.KF/H3.AQ (antibody, V domains shown, IgG) VH: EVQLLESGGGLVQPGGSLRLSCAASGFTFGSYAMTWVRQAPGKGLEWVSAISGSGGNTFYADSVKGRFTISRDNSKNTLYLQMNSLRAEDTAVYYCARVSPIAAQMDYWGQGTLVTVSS VL: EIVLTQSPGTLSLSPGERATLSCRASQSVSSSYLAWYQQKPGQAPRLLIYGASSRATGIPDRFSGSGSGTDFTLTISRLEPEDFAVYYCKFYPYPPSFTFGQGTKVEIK , I see its kon listed as 2.55e+06
